- TESTED_SYSTEM: T1, IL-13 (in-house) (UniProt P35225 35-146, limits assumed)
- T1 construct: SPR analyte
- T1 sequence (P35225 35-146 limits assumed): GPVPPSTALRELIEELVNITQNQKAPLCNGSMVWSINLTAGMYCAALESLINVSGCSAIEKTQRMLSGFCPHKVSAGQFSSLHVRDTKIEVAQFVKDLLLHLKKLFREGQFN
- ASSAY_EXPLANATION: SPR (BIAcore T200), Fab captured on anti-Fab chip, IL-13 as analyte, 25 C, 1:1 model
Readings of Kd for the listed binders

{"BINDER": "anti-IL-13 Fab variant CDR H3 D95A (Fab, name in Kabat numbering, V domains shown, Fab; variable domains only; Kabat numbering) VH: EVTLRESGPALVKPTQTLTLTCTVSGFSLSAYSVNWIRQPPGKALEWLAMIWGDGKIVYNSALKSRLTISKDTSKNQVVLTMTNMDPVDTATYYCAGAGYYPYAMDNWGQGSLVTVSS VL: DIVLTQSPDSLSVSLGERATINCRASKSVDSYGNSFMHWYQQKPGQPPKLLIYLASNLESGVPDRFSGSGSGTDFTLTISSLQAEDVAVYYCQQNNEDPRTFGGGTKVEIK", "Kd, pM": 1300}
{"BINDER": "anti-IL-13 Fab variant CDR L3 N92A (Fab, V domains shown, Fab; variable domains only; Kabat numbering) VH: EVTLRESGPALVKPTQTLTLTCTVSGFSLSAYSVNWIRQPPGKALEWLAMIWGDGKIVYNSALKSRLTISKDTSKNQVVLTMTNMDPVDTATYYCAGDGYYPYAMDNWGQGSLVTVSS VL: DIVLTQSPDSLSVSLGERATINCRASKSVDSYGNSFMHWYQQKPGQPPKLLIYLASNLESGVPDRFSGSGSGTDFTLTISSLQAEDVAVYYCQQNAEDPRTFGGGTKVEIK", "Kd, pM": 30}
{"BINDER": "anti-IL-13 Fab variant CDR L3 R96A (Fab, V domains shown, Fab; variable domains only; Kabat numbering) VH: EVTLRESGPALVKPTQTLTLTCTVSGFSLSAYSVNWIRQPPGKALEWLAMIWGDGKIVYNSALKSRLTISKDTSKNQVVLTMTNMDPVDTATYYCAGDGYYPYAMDNWGQGSLVTVSS VL: DIVLTQSPDSLSVSLGERATINCRASKSVDSYGNSFMHWYQQKPGQPPKLLIYLASNLESGVPDRFSGSGSGTDFTLTISSLQAEDVAVYYCQQNNEDPATFGGGTKVEIK", "Kd, pM": 500}
{"BINDER": "anti-IL-13 Fab variant CDR H3 P99A (Fab, name in Kabat numbering, V domains shown, Fab; variable domains only; Kabat numbering) VH: EVTLRESGPALVKPTQTLTLTCTVSGFSLSAYSVNWIRQPPGKALEWLAMIWGDGKIVYNSALKSRLTISKDTSKNQVVLTMTNMDPVDTATYYCAGDGYYAYAMDNWGQGSLVTVSS VL: DIVLTQSPDSLSVSLGERATINCRASKSVDSYGNSFMHWYQQKPGQPPKLLIYLASNLESGVPDRFSGSGSGTDFTLTISSLQAEDVAVYYCQQNNEDPRTFGGGTKVEIK", "Kd, pM": 1800}
